Tested on: Male Sprague-Dawley rats
EXPERIMENTAL_DETAILS: Elevated plus-maze test on rats
Format: in vivo, rat
CONDITION_SET: p.o., 60 minutes prior to the test; based on the time spent in the open arms
Where a name gives a salt, the structure may show the parent alone.
MED (in mg/kg) p.o. by entry:
Report only the number, with the unit mg/kg understood.

Recorded MED (in mg/kg) p.o., per entry:
Problem: Recorded MED (in mg/kg) p.o. for COc1ccc2cc(C3CCN(CC(O)COc4cccc5c4OC(C)(C)C5)CC3)ccc2c1.Cl (centres unmarked) with Male Sprague-Dawley rats, please?
Solution: 3

Problem: // next record O=C1CC2(CCCC2)CC(=O)N1CCCCN1CCN(c2ncccn2)CC1 [buspirone, reference compound]
Solution: 3

Problem: // next record CC1(C)Cc2cccc(OCC(O)CN3CCC(O)(c4cccc(Cl)c4)CC3)c2O1 (centres unmarked) [Example 24, hydrochloride]
Solution: 3

Problem: // next record CC1(C)Cc2cccc(OCC(O)CN3CCC(O)(c4ccc(F)cc4)CC3)c2O1 (centres unmarked)
Solution: 1

Note: attention shifts to another entry.
Problem: Recorded MED (in mg/kg) p.o. for COc1cccc(C2(O)CCN(CC(O)COc3cccc4c3OC(C)(C)C4)CC2)c1 (centres unmarked) [Example 25, hydrochloride] with Male Sprague-Dawley rats, please?
Solution: 0.3

====

TARGET: UniProtKB P19327
Sequence (P19327 1-422): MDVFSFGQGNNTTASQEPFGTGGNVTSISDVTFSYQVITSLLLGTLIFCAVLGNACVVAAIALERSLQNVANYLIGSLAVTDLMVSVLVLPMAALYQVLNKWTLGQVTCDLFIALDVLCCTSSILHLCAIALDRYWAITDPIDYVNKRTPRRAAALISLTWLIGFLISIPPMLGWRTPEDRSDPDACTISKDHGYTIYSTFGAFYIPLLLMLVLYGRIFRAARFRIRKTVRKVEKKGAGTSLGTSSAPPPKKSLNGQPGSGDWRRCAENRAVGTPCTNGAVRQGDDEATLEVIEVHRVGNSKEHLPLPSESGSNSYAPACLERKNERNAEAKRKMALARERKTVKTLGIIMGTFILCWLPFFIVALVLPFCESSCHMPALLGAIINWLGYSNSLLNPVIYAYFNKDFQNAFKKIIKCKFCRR
Where a name gives a salt, the structure may show the parent alone.
EXPERIMENTAL_ENDPOINT: pKi
# pKi = -log10(concentration in molar units)

Problem: // returns reported pKi for input COc1ccc(C2(O)CCN(CC(O)COc3cccc4c3OC(C)(C)C4)CC2)cc1 (centres unmarked) [Example 26]
Solution: 8.52

---
Problem: // returns reported pKi for input CC1(C)Cc2cccc(OCC(O)CN3CCC(O)(c4cccc(Cl)c4)CC3)c2O1 (centres unmarked) [Example 24, hydrochloride]
Solution: 7.92

Problem: // next record CC1(C)Cc2cccc(OCC(O)CN3CCC(O)(c4cccc(C(F)(F)F)c4)CC3)c2O1 (centres unmarked) [Example 9, hydrochloride]
Solution: 7.70

Problem: // next record CC1(C)Cc2cccc(OCC(O)CN3CCC(O)(c4ccccc4)CC3)c2O1 (centres unmarked) [Example 20, hydrochloride]
Solution: 8.22

Problem: // next record COc1cccc(C2(O)CCN(CC(O)COc3cccc4c3OC(C)(C)C4)CC2)c1 (centres unmarked) [Example 25, hydrochloride]
Solution: 9.15

Problem: // next record Cc1ccc(C2(O)CCN(CC(O)COc3cccc4c3OC(C)(C)C4)CC2)cc1 (centres unmarked) [Example 30, hydrochloride]
Solution: 8.30

Problem: // next record CC1(C)Cc2cccc(OCC(O)CN3CCC(O)(c4ccc(Cl)cc4)CC3)c2O1 (centres unmarked) [Example 14]
Solution: 8.00

Problem: // next record CC1(C)Cc2cccc(OCC(O)CN3CCC(O)(c4ccc(F)cc4)CC3)c2O1 (centres unmarked) [Example 16]
Solution: 8.52

====

Test system: isolated perfused rat heart
EXPERIMENTAL_DETAILS: TTC prolonging effect in isolated Langendorff rat hearts (global ischemia)
Structures can show the parent of a compound that is named as a salt.
EXPERIMENTAL_ENDPOINT: TTC change (in %) at 10^−6 M
Report only the number, with the unit % understood.

Recorded TTC change (in %) at 10^−6 M, per entry:
Problem: // returns reported TTC change (in %) at 10^−6 M for input CC1(C)Cc2cccc(OCC(O)CN3CCC(O)(c4cccc(Cl)c4)CC3)c2O1 (stereo not shown) [Example 24, hydrochloride]
Solution: 47

Problem: // next record COc1ccc(C2(O)CCN(CC(O)COc3cccc4c3OC(C)(C)C4)CC2)cc1 (stereo not shown) [Example 26]
Solution: 43

Problem: // next record CC1(C)Cc2cccc(OCC(O)CN3CCC(O)(c4ccc(F)cc4)CC3)c2O1 (stereo not shown) [Example 16]
Solution: 5

---
Problem: // returns reported TTC change (in %) at 10^−6 M for input CC1(C)Cc2cccc(OCC(O)CN3CCC(O)(c4cccc(C(F)(F)F)c4)CC3)c2O1 (stereo not shown) [Example 9, hydrochloride]
Solution: 90

Problem: // next record COc1cccc(C2(O)CCN(CC(O)COc3cccc4c3OC(C)(C)C4)CC2)c1 (stereo not shown) [Example 25, hydrochloride]
Solution: 2

Problem: // next record CC1(C)Cc2cccc(OCC(O)CN3CCC(C#N)(c4ccccc4)CC3)c2O1.Cl (stereo not shown) [Example 41]
Solution: 32

Problem: // next record CC1(C)Cc2cccc(OCC(O)CN3CCC(O)(c4ccccc4)CC3)c2O1 (stereo not shown) [Example 20, hydrochloride]
Solution: 18
